Sourced from PubChem BioAssay (NCI)

System: DU-145 prostate
Test: NCI-60 one-dose screen, 48 h (100 = growth as untreated, 0 = no growth, -100 = all killed)
Conditions: 10 µM
This is part of a sample that, as a whole, favours compounds with a hit. Of some 83,000 tested, about 20% had one in any assay.
measured-quantity: growth (%)
Kindly provide the numeric value in % only, without the unit symbol.

Some solved entries appear below for comparison.
molecule	measured-quantity	result-value
COc1ccc2nc(Cl)c(-c3cc(-c4ccccc4)nc(=S)[nH]3)cc2c1	growth	72.6
O=C(c1ccc(O)cc1)C1[C@H](c2ccc(Br)cc2)[C@@H](c2ccccc2)NC12C(=O)Nc1ccccc12 (stereo partly drawn)	growth	49.1
C=C(C)[C@@H]1CC[C@]2(COP(=O)(OCC)OCC)CC[C@]3(C)[C@H](CC[C@@H]4[C@@](C)(CCCN)[C@H](C(=C)C)CC[C@]43C)[C@@H]12	growth	38
Cc1ccc(-c2cc(-c3cc4ccccc4nc3Cl)[nH]c(=O)n2)cc1	growth	14.2
CO[C@@H]1CSS[C@H]1Cn1nc(-c2ccc(Oc3ccccc3)cc2)c2c(N)ncnc21	growth	73.5

In: Find the recorded growth belonging to `O=C(Nc1cccc([N+](=O)[O-])c1)Nc1cccc([N+](=O)[O-])c1` and report it.
Out: 82

In: Give the measured growth of `O=C(CSc1nnc(-c2c[nH]c3ccccc23)n1-c1ccccc1)Nc1ccc(C(=O)/C=C/c2ccc(Cl)cc2)cc1` .
Out: 79.7

In: Entry O=C(Cc1ccc2c(c1)CN(C1CCC(=O)NC1=O)C2=O)NCc1cccc2ccccc12 (stereo not drawn) : reported growth = ?
Out: -7
